B1: BCL2L13 (parent)
chain: YIIQQGGWGTVFSLESEEEEYPGI

- Variants of: B1
- METHOD NOTES: protein stability index of a GFP-peptide fusion (GPS, HEK-293T) (PSI 1-6); higher = more stable;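 note: lentivirally expressed fusions sorted by FACS into six bins by GFP to DsRed ratio, PSI derived from sequencing read proportions per bin multiplied by bin number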
- CONDITION NOTES: c terminus: a fixed tail appended
PROPERTY: protein stability index
Lab note: record the figure alone, no unit after it.

In: Query protein stability index for I24Y
Out: 1.22

In: Please give measured protein stability index of the following entry: E17I
Out: 1.76

In: Note protein stability index for the variant shown: F12H
Out: 1.75

In: Supply measured protein stability index of E17H in your reply.
Out: 2.65

In: Recall and state the measured protein stability index for S13L .
Out: 1.24

In: Look up protein stability index of I24A and report it.
Out: 1.39

In: Could you please provide reported protein stability index for L14D ? Thanks!
Out: 2.21

In: In one line, give reported protein stability index of the entry E17C .
Out: 2.77

In: Quickly give me recorded protein stability index for L14V
Out: 1.98

In: State, in one line, measured protein stability index of T10R
Out: 1.6

***
In: Identify measured protein stability index corresponding to W8S
Out: 3.17

In: For the variant I2Y , report protein stability index.
Out: 2.46

In: For the variant I24L , give its measured protein stability index value.
Out: 1.82

In: For Y1V , write its protein stability index.
Out: 2.57

In: State, in one line, measured protein stability index of Y1G
Out: 4.05

The values you see were collected from the supplement of paper PMC10567573.
